Tested on: 409B2 hiPSC (iCRISPR Cas9, FRMD7 editing)
measurement.description: cell survival relative to solvent control (fold (ratio to mock)); higher = more surviving cells
condition.set: 500 nM
Counter-ions that a name gives are not always drawn.
Lab note: compare cell survival against 0.3. Equal or greater, write met. Smaller, write not met.

| compound | system.tested | category.label |
| --- | --- | --- |
| CC(=O)O[C@@]12CO[C@@H]1C[C@@H](O)[C@@]1(C)C(=O)[C@H](O)C3=C(C)[C@@H](O)C[C@@](O)([C@@H](OC(=O)c4ccccc4)[C@H]21)C3(C)C [10-DAB (10-Deacetylbaccatin)] (in DMSO) | 409B2 hiPSC (iCRISPR Cas9, FRMD7 editing) | met |

Task: Threshold query (cell survival >= 0.3) on CC(C)(c1ccc(O)cc1)c1ccc(O)cc1 [Bisphenol A] (in DMSO)
Output: met

Task: Threshold query (cell survival >= 0.3) on C=CC[C@]1(O)CC[C@H]2[C@@H]3CCC4=CC(=O)CCC4=C3C=C[C@@]21C [Altrenogest] (in DMSO)
Output: met

Task: For this compound, is measured cell survival 0.3 or higher? CO[C@H]1O[C@@H]2O[C@@]3(C)CC[C@H]4[C@H](C)CC[C@@H]([C@H]1C)[C@@]24OO3 [Artemether (SM-224)] (in DMSO)
Output: met

Task: Please indicate if the recorded cell survival for CCc1c2c(nc3ccc(OC(=O)N4CCC(N5CCCCC5)CC4)cc13)-c1cc3c(c(=O)n1C2)COC(=O)[C@]3(O)CC [Irinotecan HCl Trihydrate] (in DMSO) meets or exceeds 0.3.
Output: not met

Task: Determine whether this compound has cell survival no lower than 0.3: CNCc1ccc(-c2[nH]c3cc(F)cc4c3c2CCNC4=O)cc1 [Rucaparib (free base)] (in DMSO)
Output: not met

###

Would you mind telling me the reported NHEJ-attributed indel frequency of each entry?
Tested on: 409B2 hiPSC (iCRISPR Cas9, FRMD7 editing)
measurement.description: NHEJ-attributed indel frequency relative to solvent control (fold (ratio to mock)); higher = more NHEJ outcomes
condition.set: 20 nM
Structures can show the parent of a compound that is named as a salt.
One number for each entry.

Known NHEJ-attributed indel frequency results, listed for orientation:
| molecule | NHEJ-attributed indel frequency |
| --- | --- |
| NS(=O)(=O)c1ccccc1 [Benzenesulfonamide] (in DMSO) | 0.951 |
| CNCc1ccc(-c2[nH]c3cc(F)cc4c3c2CCNC4=O)cc1 [Rucaparib (free base)] (in DMSO) | 0.952 |
| CC[C@@]1(O)C(=O)OCc2c1cc1n(c2=O)Cc2cc3cc(O)ccc3nc2-1 [10-Hydroxycamptothecin] (in DMSO) | 0.393 |
| CC(=O)O[C@]1(C(C)=O)CC[C@H]2[C@@H]3C=C(Cl)C4=CC(=O)[C@@H]5C[C@@H]5[C@]4(C)[C@H]3CC[C@@]21C [Cyproterone Acetate] (in DMSO) | 0.962 |
| C[C@]12CC[C@@H]3c4ccc(O)cc4CC[C@H]3[C@@H]1C[C@@H](O)[C@@H]2O [Estriol] (in DMSO) | 0.994 |
| CC[C@@]1(O)C(=O)OCc2c1cc1n(c2=O)Cc2cc3c(CN(C)C)c(O)ccc3nc2-1 [Topotecan] (in DMSO) | 0.68 |
| NCCS [2-Aminoethanethiol] (in DMSO) | 0.979 |
| Nc1ccn([C@@H]2O[C@H](CO)[C@@H](O)[C@@H]2O)c(=O)n1 [Cytarabine hydrochloride] (in DMSO) | 1.02 |
| CC[C@]1(O)C[C@@H]2CN(CCc3c([nH]c4ccccc34)[C@@](C(=O)OC)(c3cc4c(cc3OC)N(C)[C@H]3[C@@](O)(C(=O)OC)[C@H](OC(C)=O)[C@]5(CC)C=CCN6CC[C@]43[C@@H]65)C2)C1 [Vinblastine sulfate] (in DMSO) | 0.606 |
| C[C@@H]1O[C@@H](O[C@@H]2[C@@H](O)[C@H](OCCc3ccc(O)c(O)c3)O[C@H](CO)[C@H]2OC(=O)/C=C/c2ccc(O)c(O)c2)[C@H](O)[C@H](O)[C@H]1O [Verbascoside] (in DMSO) | 0.964 |

Consider the following items and state reported NHEJ-attributed indel frequency for each.
1. CS(=O)(=O)N1CCN(Cc2cc3nc(-c4cccc5[nH]ncc45)nc(N4CCOCC4)c3s2)CC1 [GDC-0941] (in DMSO)
2. Nc1ncnc2c1ncn2C1CC(O)C(CO)O1 (stereo unspecified) [2'-Deoxyadenosine monohydrate] (in DMSO)
3. CCCCCCCCCCCCCC(=O)O [Myristic Acid] (in DMSO)
4. C=CC[C@]1(O)CC[C@H]2[C@@H]3CCC4=CC(=O)CCC4=C3C=C[C@@]21C [Altrenogest] (in DMSO)
5. CC[C@H](CO)Nc1nc(NCc2ccccc2)c2ncn(C(C)C)c2n1 [Roscovitine (Seliciclib,CYC202)] (in DMSO)
6. CC[C@]1(O)C[C@@H]2CN(CCc3c([nH]c4ccccc34)[C@@](C(=O)OC)(c3cc4c(cc3OC)N(C)[C@H]3[C@@](O)(C(=O)OC)[C@H](OC(C)=O)[C@]5(CC)C=CCN6CC[C@]43[C@@H]65)C2)C1 [vinblastine] (in DMSO)

Output:
1: 0.978; 2: 1.01; 3: 0.996; 4: 0.978; 5: 1; 6: 0.415
